Tested on: 186277-243-T-J2-PDC multi-cell spheroid viability
Assay: Anticancer human tumor 186277-243-T-J2-PDC patient-derived colon adenocarcinoma cell line growth inhibition [PI3K]
Settings: second compound 1 µM; first compound 0.316 µM; stronger effect = lower value
Simple rule here: viability, T/C less than 40% is Condition met, otherwise Condition not met.

- CC(Cn1ccc(-c2ccc(C#N)c(Cl)c2)n1)NC(=O)c1cc(C(C)O)[nH]n1 (stereo not given) + CC(Nc1ccc2c(c1)OCCn1cc(N3C(=O)OCC3C(F)F)nc1-2)C(N)=O: Condition not met
- Cn1ncc(Cl)c1-c1cc(C(=O)NC(CN)Cc2cccc(F)c2)sc1Cl (stereo not given) + COc1c(OCCCN2CCOCC2)ccc2c3n(c(=NC(=O)c4cnc(N)nc4)nc12)CCN3: Condition met
- C=CC(=O)N1CCN(c2nc(=O)n(-c3c(C)ccnc3C(C)C)c3nc(-c4c(O)cccc4F)c(F)cc23)C(C)C1 (stereo not given) + CC(Nc1ccc2c(c1)OCCn1cc(N3C(=O)OCC3C(F)F)nc1-2)C(N)=O: Condition not met
- Cn1nccc1Nc1nccc(-c2ccn(C(CO)c3ccc(Cl)c(F)c3)c(=O)c2)n1 (stereo not given) + COc1c(OCCCN2CCOCC2)ccc2c3n(c(=NC(=O)c4cnc(N)nc4)nc12)CCN3: Condition met
- CC(C)NCC(C(=O)N1CCN(c2ncnc3c2C(C)CC3O)CC1)c1ccc(Cl)cc1 (stereo not given) + COc1c(OCCCN2CCOCC2)ccc2c3n(c(=NC(=O)c4cnc(N)nc4)nc12)CCN3: Condition met

* * *

System: 186277-243-T-J2-PDC multi-cell spheroid viability
Assay: Anticancer human tumor 186277-243-T-J2-PDC cell line growth inhibition [PI3K];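 further: spheroids exposed to compounds for seven days before viability reading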;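 on viability, T/C: 100% = DMSO vehicle control viability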
Settings: second compound 0.1 µM; first compound 0.001 µM; stronger effect = lower value
Observation type: viability, T/C (%)

• Cn1ncnc1[C@H]1c2n[nH]c(=O)c3cc(F)cc(c23)N[C@@H]1c1ccc(F)cc1 + COc1c(OCCCN2CCOCC2)ccc2c3n(c(=NC(=O)c4cnc(N)nc4)nc12)CCN3 = 15.9
• CC(=O)c1c(C)c2cnc(Nc3ccc(N4CCNCC4)cn3)nc2n(C2CCCC2)c1=O + CC(Nc1ccc2c(c1)OCCn1cc(N3C(=O)OCC3C(F)F)nc1-2)C(N)=O = 89.3
• CC(C)n1nc(-c2ccc3oc(N)nc3c2)c2c(N)ncnc21 + CC(Nc1ncnc2nc[nH]c12)c1cc2cccc(Cl)c2c(=O)n1-c1ccccc1 = 101

* * *

Overview of reported viability, T/C across a group of compounds:
Tested on: 186277-243-T-J2-PDC multi-cell spheroid viability
Assay: Anticancer human tumor 186277-243-T-J2-PDC cell line growth inhibition [PI3K];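 further: spheroids exposed to compounds for seven days before viability reading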;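 on viability, T/C: 100% = DMSO vehicle control viability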
Conditions: second compound 0.1 µM; first compound 0.00949 µM; stronger effect = lower value
Observation type: viability, T/C (%)

* Cn1cnc2c(F)c(Nc3ccc(Br)cc3Cl)c(C(=O)NOCCO)cc21 + CC(Nc1ncnc2nc[nH]c12)c1cc2cccc(Cl)c2c(=O)n1-c1ccccc1 | 115
* Cn1cnc2c(F)c(Nc3ccc(Br)cc3Cl)c(C(=O)NOCCO)cc21 + CC(Nc1ccc2c(c1)OCCn1cc(N3C(=O)OCC3C(F)F)nc1-2)C(N)=O | 53.9
* Cn1cnc2c(F)c(Nc3ccc(Br)cc3Cl)c(C(=O)NOCCO)cc21 + Cc1nc(NC(=O)N2CCCC2C(N)=O)sc1-c1ccnc(C(C)(C)C(F)(F)F)c1 | 100
* Cn1cnc2c(F)c(Nc3ccc(Br)cc3Cl)c(C(=O)NOCCO)cc21 + COc1c(OCCCN2CCOCC2)ccc2c3n(c(=NC(=O)c4cnc(N)nc4)nc12)CCN3 | 14.6

* * *

System: 186277-243-T-J2-PDC multi-cell spheroid viability
Assay: Anticancer human tumor 186277-243-T-J2-PDC cell line growth inhibition [PI3K]; active means viability on the fitted dose curve at most 10% of control; inactive means the rest;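 further: spheroids exposed to compounds for seven days before viability reading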
Conditions: second compound 0.1 µM; first compound 3.16 µM
Outcome codes: active, inactive

• C#Cc1c(F)ccc2cc(O)cc(-c3ncc4c(N5CC6CCC(C5)N6)nc(OCC56CCCN5CC(F)C6)nc4c3F)c12 (stereo not given) + CC(Nc1ncnc2nc[nH]c12)c1cc2cccc(Cl)c2c(=O)n1-c1ccccc1 = inactive
• CC(C)NCC(C(=O)N1CCN(c2ncnc3c2C(C)CC3O)CC1)c1ccc(Cl)cc1 (stereo not given) + COc1c(OCCCN2CCOCC2)ccc2c3n(c(=NC(=O)c4cnc(N)nc4)nc12)CCN3 = active
• Cn1nccc1Nc1nccc(-c2ccn(C(CO)c3ccc(Cl)c(F)c3)c(=O)c2)n1 (stereo not given) + CC(Nc1ncnc2nc[nH]c12)c1cc2cccc(Cl)c2c(=O)n1-c1ccccc1 = inactive
• CCCS(=O)(=O)Nc1ccc(F)c(C(=O)c2c[nH]c3ncc(-c4ccc(Cl)cc4)cc23)c1F + CC(Nc1ccc2c(c1)OCCn1cc(N3C(=O)OCC3C(F)F)nc1-2)C(N)=O = inactive
• CC(C)NCC(C(=O)N1CCN(c2ncnc3c2C(C)CC3O)CC1)c1ccc(Cl)cc1 (stereo not given) + CC(Nc1ccc2c(c1)OCCn1cc(N3C(=O)OCC3C(F)F)nc1-2)C(N)=O = inactive

* * *

Test system: 186277-243-T-J2-PDC multi-cell spheroid viability
Experiment: Anticancer human tumor 186277-243-T-J2-PDC cell line growth inhibition [PI3K];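 further: spheroids exposed to compounds for seven days before viability reading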
Settings: curve of first compound; second compound 3.16 µM
pIC50: −log10 of the molar value.
Observation type: pIC50

- C#Cc1c(F)ccc2cc(O)cc(-c3ncc4c(N5CC6CCC(C5)N6)nc(OCC56CCCN5CC(F)C6)nc4c3F)c12 (stereo unspecified) + CC(Nc1ncnc2nc[nH]c12)c1cc2cccc(Cl)c2c(=O)n1-c1ccccc1: 7.28
- Cn1nccc1Nc1nccc(-c2ccn(C(CO)c3ccc(Cl)c(F)c3)c(=O)c2)n1 (stereo unspecified) + CC(Nc1ncnc2nc[nH]c12)c1cc2cccc(Cl)c2c(=O)n1-c1ccccc1: 5.94
- CC(C)NCC(C(=O)N1CCN(c2ncnc3c2C(C)CC3O)CC1)c1ccc(Cl)cc1 (stereo unspecified) + Cc1nc(NC(=O)N2CCCC2C(N)=O)sc1-c1ccnc(C(C)(C)C(F)(F)F)c1: 7.22
- Cn1ncc(Cl)c1-c1cc(C(=O)NC(CN)Cc2cccc(F)c2)sc1Cl (stereo unspecified) + CC(Nc1ncnc2nc[nH]c12)c1cc2cccc(Cl)c2c(=O)n1-c1ccccc1: 6.52
- CC1(C)CCC(CN2CCN(c3ccc(C(=O)NS(=O)(=O)c4ccc(NCC5CCOCC5)c([N+](=O)[O-])c4)c(Oc4cnc5[nH]ccc5c4)c3)CC2)=C(c2ccc(Cl)cc2)C1 + CC(Nc1ncnc2nc[nH]c12)c1cc2cccc(Cl)c2c(=O)n1-c1ccccc1: 5.29
- CC1(C)CCC(Nc2ncc(C(F)(F)F)c(-c3c[nH]c4c(P(C)(C)=O)c(C#N)ccc34)n2)CN1 (stereo unspecified) + CC(Nc1ncnc2nc[nH]c12)c1cc2cccc(Cl)c2c(=O)n1-c1ccccc1: 5.40

* * *

System: 186277-243-T-J2-PDC multi-cell spheroid viability
Experiment: Anticancer human tumor 186277-243-T-J2-PDC cell line growth inhibition [PI3K];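 further: spheroids exposed to compounds for seven days before viability reading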;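 on viability, T/C: 100% = DMSO vehicle control viability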
Settings: second compound 0.316 µM; first compound 3.16 µM; stronger effect = lower value
Reported viability, T/C values for the following molecules.
Observation type: viability, T/C

- Cn1nccc1Nc1nccc(-c2ccn(C(CO)c3ccc(Cl)c(F)c3)c(=O)c2)n1 (stereo not given) + CC(Nc1ccc2c(c1)OCCn1cc(N3C(=O)OCC3C(F)F)nc1-2)C(N)=O: 9.67%
- Cn1nccc1Nc1nccc(-c2ccn(C(CO)c3ccc(Cl)c(F)c3)c(=O)c2)n1 (stereo not given) + CC(Nc1ncnc2nc[nH]c12)c1cc2cccc(Cl)c2c(=O)n1-c1ccccc1: 40.9%
- CC1(C)CCC(CN2CCN(c3ccc(C(=O)NS(=O)(=O)c4ccc(NCC5CCOCC5)c([N+](=O)[O-])c4)c(Oc4cnc5[nH]ccc5c4)c3)CC2)=C(c2ccc(Cl)cc2)C1 + Cc1nc(NC(=O)N2CCCC2C(N)=O)sc1-c1ccnc(C(C)(C)C(F)(F)F)c1: 68.2%
- C=CC(=O)N1CCN(c2nc(=O)n(-c3c(C)ccnc3C(C)C)c3nc(-c4c(O)cccc4F)c(F)cc23)C(C)C1 (stereo not given) + CC(Nc1ncnc2nc[nH]c12)c1cc2cccc(Cl)c2c(=O)n1-c1ccccc1: 119%
- C[C@@H](NC(=O)c1ncnc(N)c1Cl)c1ncc(C(=O)Nc2cc(C(F)(F)F)c(Cl)cn2)s1 + Cc1nc(NC(=O)N2CCCC2C(N)=O)sc1-c1ccnc(C(C)(C)C(F)(F)F)c1: 85.8%
- C=CC(=O)N1CCN(c2nc(=O)n(-c3c(C)ccnc3C(C)C)c3nc(-c4c(O)cccc4F)c(F)cc23)C(C)C1 (stereo not given) + Cc1nc(NC(=O)N2CCCC2C(N)=O)sc1-c1ccnc(C(C)(C)C(F)(F)F)c1: 86.9%
- CCCS(=O)(=O)Nc1ccc(F)c(C(=O)c2c[nH]c3ncc(-c4ccc(Cl)cc4)cc23)c1F + CC(Nc1ccc2c(c1)OCCn1cc(N3C(=O)OCC3C(F)F)nc1-2)C(N)=O: 71.5%
- CC1(C)CCC(CN2CCN(c3ccc(C(=O)NS(=O)(=O)c4ccc(NCC5CCOCC5)c([N+](=O)[O-])c4)c(Oc4cnc5[nH]ccc5c4)c3)CC2)=C(c2ccc(Cl)cc2)C1 + COc1c(OCCCN2CCOCC2)ccc2c3n(c(=NC(=O)c4cnc(N)nc4)nc12)CCN3: 6.17%
- CCCS(=O)(=O)Nc1ccc(F)c(C(=O)c2c[nH]c3ncc(-c4ccc(Cl)cc4)cc23)c1F + COc1c(OCCCN2CCOCC2)ccc2c3n(c(=NC(=O)c4cnc(N)nc4)nc12)CCN3: 12.3%
- C=CC(=O)N1CCN(c2nc(=O)n(-c3c(C)ccnc3C(C)C)c3nc(-c4c(O)cccc4F)c(F)cc23)C(C)C1 (stereo not given) + COc1c(OCCCN2CCOCC2)ccc2c3n(c(=NC(=O)c4cnc(N)nc4)nc12)CCN3: 7.04%
